Tested on: woolly cupgrass
Assay: Test C pre-/postemergence herbicide test
Assay type: in vivo, Eriochloa villosa
Experimental Conditions: 125 g ai/ha; scale 0 (no effect) to 100 (complete control); visual, 12 to 14 days; preemergence
Recorded Endpoint: Plant response rating, Cupgrass, Woolly
I'd appreciate a reply containing only the number, no unit.

// below: answered molecules
{"Compound Structure String": "CCn1nc(C2(C)CC2)cc1C(=O)Nc1cc(C(=O)N2CC=CC2)ccc1F", "Measurement Target": "woolly cupgrass", "Plant response rating, Cupgrass, Woolly": 50}
{"Compound Structure String": "CCNC(=O)c1ccc(F)c(NC(=O)c2cn(C(C)(C)C)nc2CC)c1", "Measurement Target": "woolly cupgrass", "Plant response rating, Cupgrass, Woolly": 40}
{"Compound Structure String": "CCCCOc1cccc(NC(=O)c2cc(C(C)(C)C)nn2CC)c1", "Measurement Target": "woolly cupgrass", "Plant response rating, Cupgrass, Woolly": 0}

The molecule listed as `CCN(CC)C(=O)c1cccc(NC(=O)c2cc(C(C)(C)C)nn2C)n1` has a reported Plant response rating, Cupgrass, Woolly of 0

The molecule listed as `C#CCNC(=O)c1cccc(NC(=O)c2cc(C(C)(C)C)nn2CC)n1` has a reported Plant response rating, Cupgrass, Woolly of 10

###

Test system: smallflower umbrella sedge
Assay: Test C flooded paddy test
Assay type: in vivo, Cyperus difformis
Experimental Conditions: 500 g ai/ha, visual rating after 12 to 14 days, scale 0 to 100 (0 no effect, 100 complete control)
Give label 1 when the value for Plant response rating, Sedge, Umbrella is at least 80. Give label 0 when it is less.

**Q:** Assess whether reported Plant response rating, Sedge, Umbrella for `C#CCNC(=O)c1cc(NC(=O)c2cc(C(C)(C)C)nn2CC)ccn1` sits at 80 or higher.
**A:** label 0

###

Test system: cocklebur
Assay: Test B pre-/postemergence herbicide test
Type: in vivo, Xanthium strumarium
Experimental Conditions: 125 g ai/ha; 0 is no effect, 100 is complete control; preemergence
In this section, each of the compounds is paired with its reported Plant response rating (0 to 100 scale), Cocklebur.
I'd appreciate a reply containing only the number, no unit.

The compound listed as `C=CCNC(=O)c1ccc(F)c(NC(=O)c2cc(C(C)(C)C)nn2CC)c1` has a reported Plant response rating (0 to 100 scale), Cocklebur of 10

The compound listed as `C=CCNC(=O)c1cccc(NC(=O)c2nn(C(C)C)nc2CC)c1` has a reported Plant response rating (0 to 100 scale), Cocklebur of 0

The compound listed as `CCc1nn(C(C)C)nc1C(=O)Nc1cccc(C(=S)N(C)C)c1` has a reported Plant response rating (0 to 100 scale), Cocklebur of 10

The compound listed as `Cc1nn(C(C)C)nc1C(=O)Nc1cc(C(=O)N2CC=CC2)ccc1F` has a reported Plant response rating (0 to 100 scale), Cocklebur of 0

The compound listed as `C#CCNC(=O)c1ccc(F)c(NC(=O)c2nn(C(C)(C)C)nc2CC)c1` has a reported Plant response rating (0 to 100 scale), Cocklebur of 0

The compound listed as `C=CCNC(=O)c1cccc(NC(=O)c2cc(C(C)(C)C)nn2C)n1` has a reported Plant response rating (0 to 100 scale), Cocklebur of 0

The compound listed as `CCOC(=O)c1cccc(NC(=O)c2nn(C(C)C)nc2C)c1` has a reported Plant response rating (0 to 100 scale), Cocklebur of 0

The compound listed as `CCn1nc(C(C)(C)C)cc1C(=O)Nc1cccc(OS(=O)(=O)CC)c1` has a reported Plant response rating (0 to 100 scale), Cocklebur of 0

###

System: morningglory
Assay: Test A pre-/postemergence herbicide test
Type: in vivo, Ipomoea spp.
Experimental Conditions: Preemergence, 2000 g ai/ha; visual rating, 0 to 100 scale (0 no effect, 100 complete control)
Doc: threshold 40 (exclusive). Items with Morningglory plant response rating beneath it return y; others return n.

{"Compound Structure String": "CCNC(=O)c1ccc(F)c(NC(=O)c2cc(C(C)(C)C)nn2CC)n1", "Classification": "y"}
{"Compound Structure String": "CCN(CC)C(=O)c1cccc(NC(=O)c2cc(C(C)(C)C)nn2C)n1", "Classification": "y"}
{"Compound Structure String": "CCCCOc1cccc(NC(=O)c2cc(C(C)(C)C)nn2CC)c1", "Classification": "y"}
{"Compound Structure String": "CC(=O)c1cccc(NC(=O)c2cc(C(C)(C)C)nn2CCF)c1", "Classification": "n"}
{"Compound Structure String": "C#CCNC(=O)c1cc(NC(=O)c2cc(C(C)(C)C)nn2CC)ccn1", "Classification": "y"}

**Q:** Dear colleague, could you confirm whether Morningglory plant response rating of `CCN(CC)C(=O)c1cccc(NC(=O)c2sc(C(C)(C)C)nc2C)c1` falls below 40? Thanks.
**A:** n

**Q:** Dear colleague, could you confirm whether Morningglory plant response rating of `CCn1nc(C(C)(C)C)cc1C(=O)Nc1cc(C(=O)NC(C)(C)C)ccn1` falls below 40? Thanks.
**A:** y

**Q:** Dear colleague, could you confirm whether Morningglory plant response rating of `CCn1nc(C(C)(C)C)cc1C(=O)Nc1cccc(OCCCF)c1` falls below 40? Thanks.
**A:** n

###

In this section, each of the compounds is paired with its reported Plant response rating, Surinam Grass.
Tested on: Surinam grass
Assay: Test C pre-/postemergence herbicide test
Type: in vivo, Urochloa decumbens
Experimental Conditions: 62 g ai/ha; preemergence; scale 0 to 100
I'd appreciate a reply containing only the number, no unit.

{"Compound": "CCN1N=C(C(C)(C)C)CC1C(=O)Nc1cc(C(=O)N2CC=CC2)ccc1F (racemic)", "Recorded Endpoint": "Plant response rating, Surinam Grass", "Val": 5}
{"Compound": "CCc1nc(C(C)(C)C)sc1C(=O)Nc1cccc(C(=O)N(CC)CC)c1", "Recorded Endpoint": "Plant response rating, Surinam Grass", "Val": 0}
{"Compound": "CCN(CC)C(=O)c1cccc(NC(=O)c2sc(C(C)(C)C)nc2C)c1", "Recorded Endpoint": "Plant response rating, Surinam Grass", "Val": 0}
{"Compound": "CCNC(=O)c1ccc(F)c(NC(=O)c2cc(C3(C)CC3)nn2CC)c1", "Recorded Endpoint": "Plant response rating, Surinam Grass", "Val": 30}

Field: next compound
The compound listed as `CCNC(=O)c1ccc(F)c(NC(=O)c2cn(C(C)(C)C)nc2CC)c1` has a reported Plant response rating, Surinam Grass of 50

###

In this section, each of the compounds is paired with its reported Plant response rating, Ducksalad.
System: ducksalad
Assay: Test C flooded paddy test
Type: in vivo, Heteranthera limosa
Experimental Conditions: 500 g ai/ha, visual rating after 12 to 14 days, scale 0 to 100 (0 no effect, 100 complete control)
I'd appreciate a reply containing only the number, no unit.

{"Compound Structure String": "C#CCNC(=O)c1cccc(NC(=O)c2sc(C(C)(C)C)nc2CC)c1", "Val": 85}

Field: next compound
The compound listed as `CCOC(=O)c1cc(NC(=O)c2cc(C(C)(C)C)nn2CC)ccc1OCC` has a reported Plant response rating, Ducksalad of 90

###

Tested on: giant foxtail
Assay: Test C pre-/postemergence herbicide test
Type: in vivo, Setaria faberi
Experimental Conditions: 250 g ai/ha; scale 0-100; preemergence
In this section, each of the compounds is paired with its reported Plant response rating, Foxtail, Giant.
I'd appreciate a reply containing only the number, no unit.

{"Compound": "CCN1N=C(C(C)(C)C)CC1C(=O)Nc1cc(C(=O)N2CC=CC2)ccc1F (racemic)", "Plant response rating, Foxtail, Giant": 85}

Field: next compound
The compound listed as `CCNC(=O)c1ccc(F)c(NC(=O)c2cn(C(C)(C)C)nc2CC)c1` has a reported Plant response rating, Foxtail, Giant of 80

###

In this section, each of the compounds is paired with its reported Foxtail, Giant plant response rating (0 to 100 scale).
Test system: giant foxtail
Assay: Test B pre-/postemergence herbicide test
Format: in vivo, Setaria faberi
Experimental Conditions: 125 g ai/ha; 0 = no effect, 100 = complete control; preemergence
I'd appreciate a reply containing only the number, no unit.

// below: answered compounds
{"Compound": "CCOc1cccc(NC(=O)c2cn(C(C)(C)C)nc2C)c1 [Compound 190]", "Val": 0}
{"Compound": "CCc1nc(C(C)(C)C)sc1C(=O)Nc1cccc(C(=O)NCCF)c1 [Compound 209]", "Val": 30}
{"Compound": "CCNC(=O)c1ccc(F)c(NC(=O)c2cc(C(C)(C)C)nn2CC)n1 [Compound 278]", "Val": 20}
{"Compound": "CCOC(=O)c1ccnc(NC(=O)c2cn(C(C)(C)C)nc2CC)c1 [Compound 238]", "Val": 0}

Field: next compound
The compound listed as CCn1nc(C2(C)CC2)cc1C(=O)Nc1cc(C(=O)N2CC=CC2)ccc1F [Compound 301] has a reported Foxtail, Giant plant response rating (0 to 100 scale) of 70
